Listed below: TGI values for each entry.
# Tested on: SF-295 CNS
# method summary: NCI tumour cell line growth inhibition, 48 h

Some solved entries appear below for comparison.
>  <molecule>
COC(=O)C1CCC(=O)N1C(c1ccc2c(c1)OCO2)c1ccc2c(c1)OCO2 (stereo not drawn)

>  <TGI>
> 100 µM

$$$$
>  <molecule>
CC1OC(OC2CC(O)(C(=O)CO)Cc3c(O)c4c(c(O)c32)C(=O)c2ccccc2C4=O)CC(N)C1O (stereo not drawn)

>  <TGI>
0.0818 µM

$$$$

IN: Name the reported TGI value associated with the molecule C[C@@H]1OC(=O)/C(=C\N(C)C)[C@H]2CC(=O)N(CCc3cn(S(=O)(=O)C(F)(F)F)c4ccccc34)C[C@H]12
OUT: > 100 µM

###

# System: MDA-MB-231 breast
# method summary: NCI tumour cell line growth inhibition, 48 h
parameter: GI50

Study these solved cases before continuing.
>  <structure>
O=S(=O)(NCCCNc1cc(-c2cn(-c3ccccc3)nc2-c2cccc(O)c2)ccn1)c1ccc(Cl)cc1

>  <study target>
MDA-MB-231 breast

>  <GI50>
1.81 µM

$$$$
>  <structure>
C=C1N(C)c2ccc(Cl)cc2C1(C)C

>  <study target>
MDA-MB-231 breast

>  <GI50>
16.7 µM

$$$$
>  <structure>
COc1ccc(Cn2c(Br)c3c(c2-c2cc(OC)c(OC)c(OC)c2)CCc2sc(NC(C)=O)nc2-3)cc1

>  <study target>
MDA-MB-231 breast

>  <GI50>
3.22 µM

$$$$

IN: # get_value(readout='GI50', item= C[n+]1ccc(-c2c3nc(c(-c4ccc5c(ccc[n+]5C)c4)c4ccc([nH]4)c(-c4cc[n+](C)cc4)c4nc(c(-c5ccc6c(ccc[n+]6C)c5)c5ccc2[nH]5)C=C4)C=C3)cc1 )
OUT: 16.3 µM

###

# Tested on: COLO 205 colon
# method summary: NCI tumour cell line growth inhibition, 48 h
parameter: TGI

Check out these entries, answers already filled in.
>  <compound>
CCOP(=O)(OCC)/C(C#N)=C/c1c(C)[nH]c2ccccc12

>  <TGI>
> 100 µM

$$$$
>  <compound>
NC[C@@](O)(c1ccc(Cl)cc1)c1ccc(-c2cn[nH]c2)cc1

>  <TGI>
3.18 µM

$$$$
>  <compound>
CSc1nc2c(c(=O)[nH]1)C(c1ccc(Cl)cc1)C1=C(N2)/C(=C/c2ccc(Cl)cc2)CNC1 (centres undefined)

>  <TGI>
3.53 µM

$$$$
>  <compound>
COc1ccc(/C(C)=N/NC(N)=S)c(OC)c1

>  <TGI>
> 100 µM

$$$$
>  <compound>
COc1cc2c3c(c4c5ccccc5[nH]c4c2c(OC)c1OC)C(=O)N(CCN1CCCCC1)C3=O

>  <TGI>
3.25 µM

$$$$
>  <compound>
Cc1cc(-c2ccccc2)cc2[n+]1CC=C2

>  <TGI>
> 100 µM

$$$$

IN: Value wanted: TGI (COLO 205 colon) of entry Cc1cc2[nH]c3c(C#N)c(-c4ccccc4)c(CN4CCOCC4)c(=O)n3c2cc1C
OUT: > 100 µM

IN: // lookup TGI | system=COLO 205 colon | key= O=C(CN1CCN(c2ccc(Cl)cc2)CC1)N1CCN(c2nnc(-c3ccccc3)c(-c3ccccc3)n2)CC1
OUT: > 100 µM

IN: Param readout = TGI; param system = COLO 205 colon; param query = CC(C)[C@@H]1CC[C@@H]2[C@@H]1[C@H](OC(=O)/C=C/c1ccccc1)[C@]1(C(C)C)C[C@@H](OC(=O)CO)[C@@]2(C)O1 ; response: value
OUT: 12.8 µM

IN: Tell me reported TGI for CC1(C)O[C@@H]2[C@@H]3OC(=O)C[C@@H]3[C@@H](COCc3ccccc3)[C@@H]2O1 , tested with COLO 205 colon.
OUT: > 100 µM

IN: // fetch COLO 205 colon TGI for O=C(Nc1ccc(Br)cc1F)c1cc(Br)ccc1O
OUT: 9.11 µM

IN: Please provide the recorded TGI for COc1cc(/C=C(\C#N)c2ccccn2)cc(Br)c1O , tested on COLO 205 colon.
OUT: > 100 µM

IN: Report TGI for CC(C)Oc1ccc(C(=O)N[C@H](CNC(=O)CN(C)C)Cc2ccc(-c3cn4cccc([C@H](C)O)c4n3)cc2)cc1Cl tested on COLO 205 colon.
OUT: 13.2 µM

IN: Request: TGI, test system COLO 205 colon, entry COc1cc(OC)nc(Nc2c(C#N)c3nc4ccccc4n3c3ccccc23)n1
OUT: > 100 µM

IN: Test system COLO 205 colon; read-out TGI; what value for CCCCOC(=O)C1CN2C(=NC1(C(F)(F)F)C(F)(F)F)Sc1ccccc12 (centres undefined) ?
OUT: > 100 µM

IN: Enter reported TGI observed with COLO 205 colon for O=C(O)C1OC(Oc2cc(O)c3c(=O)cc(-c4ccc(O)cc4)oc3c2)C(O)C(O)C1O (centres undefined)
OUT: > 100 µM

IN: Request: TGI, test system COLO 205 colon, entry CC1=C(c2cc(C(=O)Nc3nccs3)nc(NC#N)n2)Sc2ccccc2N1
OUT: > 100 µM

IN: Could you share what TGI was measured for CCCCCCCC/C=C/CCCCCCCC1CC(O)C(=O)O1 (centres undefined) , tested on COLO 205 colon?
OUT: > 100 µM

IN: Find TGI (COLO 205 colon) for the entry CN1CCCN(C(c2ccccc2)c2ccc(Br)cc2)CC1 (centres undefined)
OUT: 16.2 µM

IN: Form entry - test system: COLO 205 colon; read-out: TGI; compound: CC(NC(=O)C(N)CC(=O)O)NC(=O)N1CCCC1 (centres undefined)
OUT: > 100 µM
